Test: Predicted human oral absorption (QikProp)
Settings: in silico
Consider the following compounds; for each one, report its Fa.
Give a bare numeral; the unit % is implied.

Reported Fa of Cc1cc(C)cc(NC(=O)[C@@H]2CC(=O)N(CCc3c[nH]c4ccc(F)cc34)C2)c1 : 100

Reported Fa of C[C@H]1CCCC[C@@H]1NC(=O)CC[C@@H]1NC(=O)N(CCc2c[nH]c3ccc(F)cc23)C1=O : 90.7

Reported Fa of O=C(COc1ccc2ccccc2c1)Nn1ccc2c(nnc3c(-c4ccc(F)cc4)cnn32)c1=O : 100

Reported Fa of O=C(NCc1ccc2c(c1)OCO2)[C@H]1CC(=O)N(c2ccc(OCc3ccccc3Cl)cc2)C1 : 100

Reported Fa of O=C(Cn1nnc2ccccc21)Nc1ccc(-c2nc3ccccc3s2)cc1 : 100

Reported Fa of Cc1ccc(N2C[C@H](C(=O)NCc3n[nH]c(=O)c4ccccc34)CC2=O)cc1C : 77.9

Reported Fa of COc1ccc2cc(-c3nc4sc(C(=O)Nc5ccccc5OC)cc4c(=O)[nH]3)c(=O)oc2c1 : 80.4

These entries and their values trace back to ChEMBL document CHEMBL3352148.
